These entries and their values trace back to the supplement of paper PMC11246515.

# total protein half-life in vivo listing for each entry below
test: total protein half-life in vivo (active degradation + dilution); higher = more stable protein; conditions: E. coli NCM3722 delta-hslV; growth: N-lim chemostat; doubling time 6 h
Experimental Endpoint: total protein half-life in vivo

MAKHLFTSESVSEGHPDKIADQISDAVLDAILEQDPKARVACETYVKTGMVLVGGEITTSAWVDIEEITRNTVREIGYVHSDMGFDANSCAVLSAIGKQSPDINQGVDRADPLEQGAGDQGLMFGYATNETDVLMPAPITYAHRLVQRQAEVRKNGTLPWLRPDAKSQVTFQYDDGKIVGIDAVVLSTQHSEEIDQKSLQEAVMEEIIKPILPAEWLTSATKFFINPTGRFVIGGPMGDCGLTGRKIIVDTYGGMARHGGGAFSGKDPSKVDRSAAYAARYVAKNIVAAGLADRCEIQVSYAIGVAEPTSIMVETFGTEKVPSEQLTLLVREFFDLRPYGLIQMLDLLHPIYKETAAYGHFGREHFPWEKTDKAQLLRDAAGLK [P0A817]    2.01 h
MTMNSFERRNKIIQLVNEQGTVLVQDLAGVFAASEATIRADLRFLEQKGVVTRFHGGAAKIMSGNSETETQEVGFKERFQLASAPKNRIAQAAVKMIHEGMTDPTHVIWTQA    5.7 h

###

test: total protein half-life in vivo (active degradation + dilution); higher = more stable protein; conditions: E. coli NCM3722 delta-clpP delta-lon delta-hslV; growth: N-lim chemostat; doubling time 6 h
# total protein half-life in vivo listing for each entry below
Experimental Endpoint: total protein half-life in vivo

MSSEKLYSPLKVGAITAANRIFMAPLTRLRSIEPGDIPTPLMAEYYRQRASAGLIISEATQISAQAKGYAGAPGIHSPEQIAAWKKITAGVHAENGHMAVQLWHTGRISHASLQPGGQAPVAPSALSAGTRTSLRDENGQAIRVETSMPRALELEEIPGIVNDFRQAIANAREAGFDLVELHSAHGYLLHQFLSPSSNHRTDQYGGSVENRARLVLEVVDAGIEEWGADRIGIRVSPIGTFQNTDNGPNEEADALYLIEQLGKRGIAYLHMSEPDWAGGEPYTDAFREKVRARFHGPIIGAGAYTVEKAETLIGKGLIDAVAFGRDWIANPDLVARLQRKAELNPQRAESFYGGGAEGYTDYPTL    5.08 h
MPLLKLWAGSLVMLAAVSLPLQAASPVKVGSKIDTEGALLGNIILQVLESHGVPTVNKVQLGTTPVVRGAITSGELDIYPEYTGNGAFFFKDENDAAWKNAQQGYEKVKKLDSEHNKLIWLTPAPANNTWTIAVRQDVAEKNKLTSLADLSRYLQEGGTFKLAASAEFIERADALPAFEKAYGFKLGQDQLLSLAGGDTAVTIKAAAQQTSGVNAAMAYGTDGPVAALGLQTLSDPQGVQPIYAPAPVVRESVLREYPQMAQWLQPVFASLDAKTLQQLNASIAVEGLDAKKVAADYLKQKGWTK    4.32 h

###

assay: total protein half-life in vivo (active degradation + dilution); higher = more stable protein; details: E. coli NCM3722 delta-clpP; growth: N-lim chemostat; doubling time 6 h
Experimental Endpoint: total protein half-life in vivo (h)

MVSRKRNSVIYRFASLLLVLMLSACSALQGTPQPAPPVTDHPQEIRRDQTQGLQRIGSVSTMVRGSPDDALAEIKAKAVAAKADYYVVVMVDETIVTGQWYSQAILYRK    6.25
MTNLNYQQTHFVMSAPDIRHLPSDTGIEVAFAGRSNAGKSSALNTLTNQKSLARTSKTPGRTQLINLFEVADGKRLVDLPGYGYAEVPEEMKRKWQRALGEYLEKRQSLQGLVVLMDIRHPLKDLDQQMIEWAVDSNIAVLVLLTKADKLASGARKAQLNMVREAVLAFNGDVQVETFSSLKKQGVDKLRQKLDTWFSEMQPVEETQDGE [P0A6P7]    6.45
MIDYTAAGFTLLQGAHLYAPEDRGICDVLVANGKIIAVASNIPSDIVPNCTVVDLSGQILCPGFIDQHVHLIGGGGEAGPTTRTPEVALSRLTEAGVTSVVGLLGTDSISRHPESLLAKTRALNEEGISAWMLTGAYHVPSRTITGSVEKDVAIIDRVIGVKCAISDHRSAAPDVYHLANMAAESRVGGLLGGKPGVTVFHMGDSKKALQPIYDLLENCDVPISKLLPTHVNRNVPLFEQALEFARKGGTIDITSSIDEPVAPAEGIARAVQAGIPLARVTLSSDGNGSQPFFDDEGNLTHIGVAGFETLLETVQVLVKDYDFSISDALRPLTSSVAGFLNLTGKGEILPGNDADLLVMTPELRIEQVYARGKLMVKDGKACVKGTFETA    5.9

###

assay: total protein half-life in vivo (active degradation + dilution); higher = more stable protein; conditions: wild type E. coli NCM3722; growth: P-lim chemostat; doubling time 6 h
Experimental Endpoint: total protein half-life in vivo (h)

MTQFNPVDHPHRRYNPLTGQWILVSPHRAKRPWQGAQETPAKQVLPAHDPDCFLCAGNVRVTGDKNPDYTGTYVFTNDFAALMSDTPDAPESHDPLMRCQSARGTSRVICFSPDHSKTLPELSVAALTEIVKTWQEQTAELGKTYPWVQVFENKGAAMGCSNPHPHGQIWANSFLPNEAEREDRLQKEYFAEQKSPMLVDYVQRELADGSRTVVETEHWLAVVPYWAAWPFETLLLPKAHVLRITDLTDAQRSDLALALKKLTSRYDNLFQCSFPYSMGWHGAPFNGEENQHWQLHAHFYPPLLRSATVRKFMVGYEMLAETQRDLTAEQAAERLRAVSDIHFRESGV    5.52
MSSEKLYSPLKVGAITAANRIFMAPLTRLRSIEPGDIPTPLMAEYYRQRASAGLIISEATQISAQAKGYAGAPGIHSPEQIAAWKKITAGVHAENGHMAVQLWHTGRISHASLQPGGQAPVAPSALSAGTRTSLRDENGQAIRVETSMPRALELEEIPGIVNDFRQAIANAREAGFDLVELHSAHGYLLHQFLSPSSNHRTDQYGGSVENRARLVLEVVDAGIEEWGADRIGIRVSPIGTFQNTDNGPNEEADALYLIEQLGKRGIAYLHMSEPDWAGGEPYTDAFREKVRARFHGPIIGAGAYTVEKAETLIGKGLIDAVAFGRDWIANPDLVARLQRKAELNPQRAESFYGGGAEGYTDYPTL    1.55
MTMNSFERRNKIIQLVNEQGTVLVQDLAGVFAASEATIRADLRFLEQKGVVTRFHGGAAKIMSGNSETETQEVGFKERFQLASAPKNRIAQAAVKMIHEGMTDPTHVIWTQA    5.95
MTIHKKGQAHWEGDIKRGKGTVSTESGVLNQQPYGFNTRFEGEKGTNPEELIGAAHAACFSMALSLMLGEAGFTPTSIDTTADVSLDKVDAGFAITKIALKSEVAVPGIDASTFDGIIQKAKAGCPVSQVLKAEITLDYQLKS [P0C0L2]    5.84
MAHRPRWTLSQVTELFEKPLLDLLFEAQQVHRQHFDPRQVQVSTLLSIKTGACPEDCKYCPQSSRYKTGLEAERLMEVEQVLESARKAKAAGSTRFCMGAAWKNPHERDMPYLEQMVQGVKAMGLEACMTLGTLSESQAQRLANAGLDYYNHNLDTSPEFYGNIITTRTYQERLDTLEKVRDAGIKVCSGGIVGLGETVKDRAGLLLQLANLPTPPESVPINMLVKVKGTPLADNDDVDAFDFIRTIAVARIMMPTSYVRLSAGREQMNEQTQAMCFMAGANSIFYGCKLLTTPNPEEDKDLQLFRKLGLNPQQTAVLAGDNEQQQRLEQALMTPDTDEYYNAAAL    1.44
MQLTSFTDYGLRALIYMASLPEGRMTSISEVTDVYGVSRNHMVKIINQLSRAGYVTAVRGKNGGIRLGKPASAIRIGDVVRELEPLSLVNCSSEFCHITPACRLKQALSKAVQSFLTELDNYTLADLVEENQPLYKLLLVE [P0AF63]    4.03

###

# total protein half-life in vivo listing for each entry below
experiment: total protein half-life in vivo (active degradation + dilution); higher = more stable protein; settings: wild type E. coli NCM3722; growth: P-lim chemostat; doubling time 6 h
Experimental Endpoint: total protein half-life in vivo (h)

MVTSCTGHVLDNQRATTRGVFSSGSHLVTLHFQPHPFFSCVTDAVNGARSRFSAFYPKANYGLQGSQPSDVRAHNRAANGACDEYKQLKVLSMGRQKAVIKARREAKRVLRRDSRSHKQREEESVTSLVQMGGVEAIGMARDSRDTSPILARNEAQLHYLKAIESKQLIFATGEAGCGKTWISAAKAAEALIHKDVDRIIVTRPVLQADEDLGFLPGDIAEKFAPYFRPVYDVLVRRLGASFMQYCLRPEIGKVEIAPFAYMRGRTFENAVVILDEAQNVTAAQMKMFLTRLGENVTVIVNGDITQCDLPRGVCSGLSDALERFEEDEMVGIVRFGKEDCVRSALCQRTLHAYS [P0A9K1]    0.355
MMDNMQTEAQPTRTRILNAAREIFSENGFHSASMKAICKSCAISPGTLYHHFISKEALIQAIILQDQERALARFREPIEGIHFVDYMVESIVSLTHEAFGQRALVVEIMAEGMRNPQVAAMLKNKHMTITEFVAQRMRDAQQKGEISPDINTAMTSRLLLDLTYGVLADIEAEDLAREASFAQGLRAMIGGILTAS [P0ACT6]    4.64
MTQPLFLIGPRGCGKTTVGMALADSLNRRFVDTDQWLQSQLNMTVAEIVEREEWAGFRARETAALEAVTAPSTVIATGGGIILTEFNRHFMQNNGIVVYLCAPVSVLVNRLQAAPEEDLRPTLTGKPLSEEVQEVLEERDALYREVAHIIIDATNEPSQVISEIRSALAQTINC [P0A6E1]    3.9
